The reader will find reported pKd values listed item by item below.
Target: T1, human FcRH5 protein fragment (soluble) (human, UniProt Q96RD9 16-851)
T1 construct: whole entry named; also called soluble human FcRH5; Human FcRH5 (BIACORE analyte)
T1 sequence: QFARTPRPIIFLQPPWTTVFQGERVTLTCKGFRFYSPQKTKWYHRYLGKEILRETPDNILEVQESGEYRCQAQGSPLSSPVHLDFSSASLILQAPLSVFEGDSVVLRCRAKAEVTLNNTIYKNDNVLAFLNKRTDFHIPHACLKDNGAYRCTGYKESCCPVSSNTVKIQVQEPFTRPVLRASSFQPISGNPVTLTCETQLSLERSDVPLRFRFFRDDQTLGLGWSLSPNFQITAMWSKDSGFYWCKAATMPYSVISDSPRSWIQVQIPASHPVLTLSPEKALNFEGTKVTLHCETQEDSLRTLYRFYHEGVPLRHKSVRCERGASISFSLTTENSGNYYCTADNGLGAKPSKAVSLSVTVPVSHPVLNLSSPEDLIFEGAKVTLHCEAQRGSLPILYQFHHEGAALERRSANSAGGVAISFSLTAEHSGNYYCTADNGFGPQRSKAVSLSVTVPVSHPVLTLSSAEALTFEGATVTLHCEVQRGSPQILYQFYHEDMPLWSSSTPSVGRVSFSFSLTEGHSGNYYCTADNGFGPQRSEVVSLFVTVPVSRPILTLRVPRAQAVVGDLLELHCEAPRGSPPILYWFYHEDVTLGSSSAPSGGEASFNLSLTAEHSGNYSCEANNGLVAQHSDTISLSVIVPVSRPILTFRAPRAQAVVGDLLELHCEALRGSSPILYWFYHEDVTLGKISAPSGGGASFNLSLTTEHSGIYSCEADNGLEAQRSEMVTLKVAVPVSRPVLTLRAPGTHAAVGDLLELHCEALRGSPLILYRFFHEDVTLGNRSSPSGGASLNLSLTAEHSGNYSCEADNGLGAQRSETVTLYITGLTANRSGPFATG
Test: BIACORE, human IgG1, soluble human FcRH5
pKd: −log10 of the molar value.

>  <binder>
1G7.v1D (antibody, human IgG1, V domains shown, human IgG1 with the light chain of hu1G7.v1; also called D (hu1G7.v1 heavy chain L29T)) VH: EVQLVESGPGLVKPSETLSLTCTVSGFSTTRFGVHWVRQPPGKGLEWLGVIWRGGSTDYNAAFMSRLTISKDNSKNQVSLKLSSVTAADTAVYYCSNHYYGSSDYALDNWGQGTLVTVSS VL: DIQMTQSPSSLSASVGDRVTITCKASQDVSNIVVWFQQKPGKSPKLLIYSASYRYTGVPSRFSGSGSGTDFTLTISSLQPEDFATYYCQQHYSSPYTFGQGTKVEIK

>  <pKd>
8.17

$$$$
>  <binder>
1G7.v1K (antibody, human IgG1, V domains shown, human IgG1 with the light chain of hu1G7.v1; also called K (hu1G7.v1 heavy chain S82bD)) VH: EVQLVESGPGLVKPSETLSLTCTVSGFSLTRFGVHWVRQPPGKGLEWLGVIWRGGSTDYNAAFMSRLTISKDNSKNQVSLKLSDVTAADTAVYYCSNHYYGSSDYALDNWGQGTLVTVSS VL: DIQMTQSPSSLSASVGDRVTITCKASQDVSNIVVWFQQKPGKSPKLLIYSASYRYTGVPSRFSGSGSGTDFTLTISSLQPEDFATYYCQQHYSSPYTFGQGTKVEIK

>  <pKd>
7.82

$$$$
>  <binder>
hu1G7.v92 (antibody, human IgG1, V domains shown, human IgG1) VH: EVQLVESGPGLVKPSETLSLTCTVSGFSLTRFGVHWVRQPPGKGLEWLGVIWRGGSTDYNAAFVSRLTISKDNSKNQVSLKLSSVTAADTAVYYCSNHYYGSPDYALDNWGQGTLVTVSS VL: DIQMTQSPSSLSASVGDRVTITCKASQDVSNLVVWFQQKPGKSPKLLIYSGSYRYSGVPSRFSGSGSGTDFTLTISSLQPEDFATYYCQQHYSPPYTFGQGTKVEIK

>  <pKd>
9.05

$$$$
